Reported Ki values for a set of compounds
# system-tested: CNS cholinergic receptor
# experimental-setup: tritiated quinuclidine benzylate (QNB); read-out: CNS Cholinergic Receptor Binding Assays K1 QNB
Reply with the number and its unit after it.

Below are worked cases with known answers.
- compound: "CC1CN(CC#CCN2CCCC2)C(=O)N1 (stereo not drawn)"
  result: "1000 nM"
- compound: "CCOC(=O)N1CCC[C@@H]1C#CCN1CCCC1 [Compound 51L]"
  result: "760 nM"

// next entry
Briefly, Ki measured for O=C1NCCN1CC#CCN1CCCC1 : 800 nM
